Cited source for all entries: patent US20210382058A1

# MEASURED TARGET: MycPu22
# PROTOCOL DETAILS: Competition fluorescence displacement, competitor MycPu22
# Parameters: species or system human
# CONDITION PARAMETERS: competitor binding affinity; 20 nM 3′-TAMRA MycPu22, 20 nM compound, 20° C., pH 7, 100 mM K+
MEASURE: Ki (nM)

Would you please look over these solved cases?
Request: Suppose we examine the molecule COc1cnc2c(c1)C(=O)c1c-2n(CCCNC2=NCCS2)c(=O)c2cc([N+](=O)[O-])ccc12 [Compound 12] ; what Ki value has been reported?
Result: 7

Request: Suppose we examine the molecule CNCCCn1c2c(c3ccc(F)cc3c1=O)C(=O)c1cc(OC)cnc1-2 [Compound 6] ; what Ki value has been reported?
Result: 40

Request: Suppose we examine the molecule COc1cnc2c(c1)C(=O)c1c-2n(CCCN2CCCC2)c(=O)c2cc([N+](=O)[O-])ccc12 [Compound 9] ; what Ki value has been reported?
Result: 12

[P] COc1cnc2c(c1)C(=O)c1c-2n(CCCNC(C)C)c(=O)c2cc(F)ccc12 [Compound 5]
[Q] O=C1c2ccccc2-c2c1c1ccccc1c(=O)n2CCCNCCO [Compound 13]
Request: Please compare: P and Q . Report which one has the smaller Ki value. Record your answer as the label of the chosen record.
Result: P

---

# System: NCI-60 cancer cell lines
# PROTOCOL DETAILS: NCI-60 cancer cell line drug screen (GI50, MGM)
# Type: cell-based, human
# CONDITION PARAMETERS: Homo sapiens, KM12, Colon Cancer, KM12; read-out: Antiproliferative Activities [GI50 (μM)]
MEASURE: GI50 (µM)
# output: bare number, implied unit µM

Would you please look over these solved cases?
Request: Suppose we examine the molecule `COc1cc2c(cc1O)-c1c(c3ccc([N+](=O)[O-])cc3c(=O)n1CCCn1ccnc1)C2=O` ; what GI50 value has been reported?
Result: 9.39

Request: Suppose we examine the molecule `COc1cc2c(cc1O)-c1c(c3ccc([N+](=O)[O-])cc3c(=O)n1CCCN)C2=O` ; what GI50 value has been reported?
Result: 1.34

New cases:
Request: Suppose we examine the molecule `CNCCCn1c2c(c3ccc(F)cc3c1=O)C(=O)c1cc(OC)cnc1-2` ; what GI50 value has been reported?
Result: 0.24

Request: Suppose we examine the molecule `COc1cnc2c(c1)C(=O)c1c-2n(CCCN2CCCC2)c(=O)c2cc([N+](=O)[O-])ccc12` ; what GI50 value has been reported?
Result: 0.14

Request: Suppose we examine the molecule `CNCCCn1c2c(c3ccc(Cl)cc3c1=O)C(=O)c1cc(OC)cnc1-2` ; what GI50 value has been reported?
Result: 1.1

Request: Suppose we examine the molecule `CNCCCn1c2c(c3ccc([N+](=O)[O-])cc3c1=O)C(=O)c1cc(OC)cnc1-2` ; what GI50 value has been reported?
Result: 0.16

Request: Suppose we examine the molecule `COc1ccc2c(c1)C(=O)c1c-2n(CCCN2CCOCC2)c(=O)c2ccccc12` ; what GI50 value has been reported?
Result: 3.8

Request: Suppose we examine the molecule `COc1cnc2c(c1)C(=O)c1c-2n(CCCNCCN2CCOCC2)c(=O)c2cc([N+](=O)[O-])ccc12` ; what GI50 value has been reported?
Result: 0.4

---

# System: Telomeric G4 (hybrid)
# PROTOCOL DETAILS: Competition fluorescence displacement, competitor telomeric G4
# Type: binding
# CONDITION PARAMETERS: competition fluorescence displacement, 1 and 5 equivalents
MEASURE: binding selectivity for parallel G4s over hybrid G4

Request: Suppose we examine the compound `COc1cnc2c(c1)C(=O)c1c-2n(CCCNC(C)C)c(=O)c2cc(F)ccc12` ; what binding selectivity for parallel G4s over hybrid G4 value has been reported?
Result: marked selectivity

Request: Suppose we examine the compound `COc1cnc2c(c1)C(=O)c1c-2n(CCCN2CCCC2)c(=O)c2cc([N+](=O)[O-])ccc12` ; what binding selectivity for parallel G4s over hybrid G4 value has been reported?
Result: much less selectivity

Request: Suppose we examine the compound `COc1cnc2c(c1)C(=O)c1c-2n(CCCNC2=NCCS2)c(=O)c2cc([N+](=O)[O-])ccc12` ; what binding selectivity for parallel G4s over hybrid G4 value has been reported?
Result: much less selectivity

Request: Suppose we examine the compound `CNCCCn1c2c(c3ccc(F)cc3c1=O)C(=O)c1cc(OC)cnc1-2` ; what binding selectivity for parallel G4s over hybrid G4 value has been reported?
Result: marked selectivity

---

# Tested on: NCI-60 cancer cell lines
# PROTOCOL DETAILS: NCI-60 cancer cell line drug screen (GI50, MGM)
# Format: cell-based, human
# CONDITION PARAMETERS: Homo sapiens, OVCAR-5, Ovarian Cancer, OVCAR-5; read-out: Antiproliferative Activities [GI50 (μM)]
MEASURE: GI50 (µM)
# output: bare number, implied unit µM

Request: Provide value of GI50 for this record tested with NCI-60 cancer cell lines: `COc1ccc2c(c1)C(=O)c1c-2n(CCCN2CCOCC2)c(=O)c2ccccc12`
Result: 6.31

Request: Provide value of GI50 for this record tested with NCI-60 cancer cell lines: `CNCCCn1c2c(c3ccc(F)cc3c1=O)C(=O)c1cc(OC)cnc1-2`
Result: 0.35

---

// reported GI50 for each item listed
# Tested on: NCI-60 cancer cell lines
# PROTOCOL DETAILS: NCI-60 cancer cell line drug screen (GI50, MGM)
# Format: cell-based, human
# CONDITION PARAMETERS: Homo sapiens, TK-10, Renal Cancer, TK-10; read-out: Antiproliferative Activities [GI50 (μM)]
# output: bare number, implied unit µM

Would you please look over these solved cases?
Request: Provide value of GI50 for this record tested with NCI-60 cancer cell lines: `COc1cnc2c(c1)C(=O)c1c-2n(CCCNC(C)C)c(=O)c2cc(F)ccc12`
Result: 0.18

Request: Provide value of GI50 for this record tested with NCI-60 cancer cell lines: `COc1cc2c(cc1O)-c1c(c3ccc([N+](=O)[O-])cc3c(=O)n1CCCN)C2=O`
Result: 1.85

Request: Provide value of GI50 for this record tested with NCI-60 cancer cell lines: `COc1cnc2c(c1)C(=O)c1c-2n(CCCNC2=NCCS2)c(=O)c2cc([N+](=O)[O-])ccc12`
Result: 1.34

New cases:
Request: Provide value of GI50 for this record tested with NCI-60 cancer cell lines: `CN(C)CCCn1c2c(c3ccc(-c4ccn[nH]4)cc3c1=O)C(=O)c1ccccc1-2`
Result: 2.75

---

# MEASURED TARGET: Telomeric G4 (hybrid)
# PROTOCOL DETAILS: Competition fluorescence displacement, competitor telomeric G4
# Assay type: binding
# CONDITION PARAMETERS: competitor binding affinity; 20 nM 3′-TAMRA MycPu22, 20 nM compound, 20° C., pH 7, 100 mM K+
MEASURE: Ki (nM)

Request: Suppose we examine the molecule O=C1c2ccccc2-c2c1c1ccccc1c(=O)n2CCCNCCO [Compound 13] ; what Ki value has been reported?
Result: 146

Request: Suppose we examine the molecule COc1cnc2c(c1)C(=O)c1c-2n(CCCN2CCCC2)c(=O)c2cc([N+](=O)[O-])ccc12 [Compound 9] ; what Ki value has been reported?
Result: 28

Request: Suppose we examine the molecule COc1cnc2c(c1)C(=O)c1c-2n(CCCNC2=NCCS2)c(=O)c2cc([N+](=O)[O-])ccc12 [Compound 12] ; what Ki value has been reported?
Result: 14

[a] CNCCCn1c2c(c3ccc(F)cc3c1=O)C(=O)c1cc(OC)cnc1-2 [Compound 6]
[b] COc1cnc2c(c1)C(=O)c1c-2n(CCCNC(C)C)c(=O)c2cc(F)ccc12 [Compound 5]
Request: From the recorded data, which exceeds the other in Ki: a or b ? Record your answer as the label of the chosen record.
Result: a

---

# Tested on: NCI-60 cancer cell lines
# PROTOCOL DETAILS: NCI-60 cancer cell line drug screen (GI50, MGM)
# Assay type: cell-based, human
# CONDITION PARAMETERS: Homo sapiens, KM12, Colon Cancer, KM12; read-out: Antiproliferative Activities [GI50 (μM)]
MEASURE: GI50 (µM)
# output: bare number, implied unit µM

Would you please look over these solved cases?
Request: Suppose we examine the molecule `CN(C)CCCn1c2c(c3ccc(N4CCNCC4)cc3c1=O)C(=O)c1ccccc1-2` ; what GI50 value has been reported?
Result: 1.13

Request: Suppose we examine the molecule `COc1cnc2c(c1)C(=O)c1c-2n(CCCNC2=NCCS2)c(=O)c2cc([N+](=O)[O-])ccc12` ; what GI50 value has been reported?
Result: 1.11

New cases:
Request: Suppose we examine the molecule `COc1cc2c(cc1O)-c1c(c3ccc([N+](=O)[O-])cc3c(=O)n1CCCN1CCOCC1)C2=O` ; what GI50 value has been reported?
Result: 1.04

Request: Suppose we examine the molecule `CN(C)CCCn1c2c(c3cccnc3c1=O)C(=O)c1ccccc1-2` ; what GI50 value has been reported?
Result: 1.61
